- experimental target: BRD9 (Homo sapiens, UniProt Q9H8M2)
- Sequence (Q9H8M2 whole entry): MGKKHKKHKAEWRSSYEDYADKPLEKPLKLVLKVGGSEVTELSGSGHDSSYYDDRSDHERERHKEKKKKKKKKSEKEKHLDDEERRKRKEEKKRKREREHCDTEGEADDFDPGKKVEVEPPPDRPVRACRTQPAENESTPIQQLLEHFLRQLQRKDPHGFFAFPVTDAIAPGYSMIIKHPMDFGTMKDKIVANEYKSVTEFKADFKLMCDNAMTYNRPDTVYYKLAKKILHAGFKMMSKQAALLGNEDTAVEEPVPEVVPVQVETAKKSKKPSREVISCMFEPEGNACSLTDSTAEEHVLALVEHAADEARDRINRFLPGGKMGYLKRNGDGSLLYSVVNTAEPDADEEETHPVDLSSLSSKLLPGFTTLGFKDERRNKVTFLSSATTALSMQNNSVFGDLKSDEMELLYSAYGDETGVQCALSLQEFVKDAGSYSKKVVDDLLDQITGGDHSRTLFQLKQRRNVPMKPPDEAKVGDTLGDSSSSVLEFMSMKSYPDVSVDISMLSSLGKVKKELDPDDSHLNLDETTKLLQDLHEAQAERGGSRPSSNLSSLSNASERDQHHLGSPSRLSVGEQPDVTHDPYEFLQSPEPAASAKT
- assay: Degradation of BRD9 (IF), immunofluorescence in MV4-11 cells, 24 hours (Assay Protocol 2)
- Type: cell-based
- Design: A suspension of MV4-11 cells (ATCC CRL-9591) was prepared; host or cells: MV4-11
- condition info: Assay protocol 2; BRD9 degradation; read-out: DC50
Form field: DC50 (one value per entry).

COc1cc(-c2cn(C)c(=O)c(C)c2C)cc(OC)c1CN1CCN(Cc2cccc3c2CCN(C(=O)/C(C#N)=C/C(C)(C)CF)C3C(C)C)C2(CC2)C1 (mixture of isomers) [Compound C24] : < 1.25 nM
COc1cc(-c2cn(C)c(=O)c(C)c2C)cc(OC)c1CN1CC(Oc2cccc(C3CCCN3C(=O)/C(C#N)=C/C(C)(C)C)c2)C1 (mixture of isomers) : 1.25 to 10 nM

Attention now turns to another entry.
get_value(item= COc1cc(-c2cn(C)c(=O)c(C)c2C)cc(OC)c1CN1CC(Oc2ccc3c(c2)CCN(C(=O)/C(C#N)=C/c2cccc(Br)n2)C3C)C1 (mixture of isomers) , readout=DC50) returns < 1.25 nM
